tested on: NCI-H727; assay: relative viability (nuclei count vs DMSO), 5 days (fraction); higher = more cells survive; conditions: first compound 0.3162 µM
Label label 1 when relative viability < 0.6; otherwise label 0.

- compound: "O=c1cc(N2CCOCC2)oc2c(-c3cccc4c3sc3ccccc34)cccc12 + O=C(c1cc(Cc2n[nH]c(=O)c3ccccc23)ccc1F)N1CCN(C(=O)C2CC2)CC1 [Olaparib] (partner 8 µM)"
  test-target: "NCI-H727"
  assigned-category: "label 0"
- compound: "CCN(CC)CCCCNc1ncc2cc(-c3cc(OC)cc(OC)c3)c(NC(=O)NC(C)(C)C)nc2n1 + COc1cccc2cc(-c3nc([C@H]4CC[C@H](C(=O)O)CC4)n4ncnc(N)c34)[nH]c12 [OSI-027] (partner 0.5 µM)"
  test-target: "NCI-H727"
  assigned-category: "label 0"
- compound: "CCN(CC)CCCCNc1ncc2cc(-c3cc(OC)cc(OC)c3)c(NC(=O)NC(C)(C)C)nc2n1 + CS(=O)(=O)N1CCN(Cc2cc3nc(-c4cccc5[nH]ncc45)nc(N4CCOCC4)c3s2)CC1 [Pictilisib] (partner 1 µM)"
  test-target: "NCI-H727"
  assigned-category: "label 0"
- compound: "CCN(CC)CCCCNc1ncc2cc(-c3cc(OC)cc(OC)c3)c(NC(=O)NC(C)(C)C)nc2n1 + C[C@]1(O)C[C@@H](c2nc(-c3ccc4ccc(-c5ccccc5)nc4c3)c3c(N)nccn32)C1 [Linsitinib] (partner 1 µM)"
  test-target: "NCI-H727"
  assigned-category: "label 1"
- compound: "O=c1cc(N2CCOCC2)oc2c(-c3cccc4c3sc3ccccc34)cccc12 + CS(=O)(=O)CCNCc1ccc(-c2ccc3ncnc(Nc4ccc(OCc5cccc(F)c5)c(Cl)c4)c3c2)o1 [Lapatinib] (partner 2 µM)"
  test-target: "NCI-H727"
  assigned-category: "label 0"
- compound: "O=c1cc(N2CCOCC2)oc2c(-c3cccc4c3sc3ccccc34)cccc12 + O=C(CCCCCCC(=O)Nc1ccccc1)NO [Vorinostat] (partner 1 µM)"
  test-target: "NCI-H727"
  assigned-category: "label 0"
- compound: "CCN(CC)CCCCNc1ncc2cc(-c3cc(OC)cc(OC)c3)c(NC(=O)NC(C)(C)C)nc2n1 + CC(=O)Nc1cccc(-n2c(=O)n(C3CC3)c(=O)c3c(Nc4ccc(I)cc4F)n(C)c(=O)c(C)c32)c1 [Trametinib] (partner 0.02 µM)"
  test-target: "NCI-H727"
  assigned-category: "label 1"
- compound: "O=c1cc(N2CCOCC2)oc2c(-c3cccc4c3sc3ccccc34)cccc12 + C[C@]1(O)C[C@@H](c2nc(-c3ccc4ccc(-c5ccccc5)nc4c3)c3c(N)nccn32)C1 [Linsitinib] (partner 1 µM)"
  test-target: "NCI-H727"
  assigned-category: "label 1"
- compound: "CCN(CC)CCCCNc1ncc2cc(-c3cc(OC)cc(OC)c3)c(NC(=O)NC(C)(C)C)nc2n1 + Cc1cc(Nc2cc(N3CCN(C)CC3)nc(Sc3ccc(NC(=O)C4CC4)cc3)n2)n[nH]1 [Tozasertib] (partner 0.1 µM)"
  test-target: "NCI-H727"
  assigned-category: "label 0"
- compound: "CCN(CC)CCCCNc1ncc2cc(-c3cc(OC)cc(OC)c3)c(NC(=O)NC(C)(C)C)nc2n1 + CC1(C)CCC(c2ccc(Cl)cc2)=C(CN2CCN(c3ccc(C(=O)NS(=O)(=O)c4ccc(N[C@H](CCN5CCOCC5)CSc5ccccc5)c(S(=O)(=O)C(F)(F)F)c4)cc3)CC2)C1 [Navitoclax] (partner 0.5 µM)"
  test-target: "NCI-H727"
  assigned-category: "label 1"
- compound: "O=c1cc(N2CCOCC2)oc2c(-c3cccc4c3sc3ccccc34)cccc12 + Cc1cc(Nc2cc(N3CCN(C)CC3)nc(Sc3ccc(NC(=O)C4CC4)cc3)n2)n[nH]1 [Tozasertib] (partner 0.1 µM)"
  test-target: "NCI-H727"
  assigned-category: "label 0"
- compound: "O=c1cc(N2CCOCC2)oc2c(-c3cccc4c3sc3ccccc34)cccc12 + C[C@@H](Oc1cc(-c2cnn(C3CCNCC3)c2)cnc1N)c1c(Cl)ccc(F)c1Cl [Crizotinib] (partner 1 µM)"
  test-target: "NCI-H727"
  assigned-category: "label 0"
- compound: "O=c1cc(N2CCOCC2)oc2c(-c3cccc4c3sc3ccccc34)cccc12 + CC1(C)CCC(c2ccc(Cl)cc2)=C(CN2CCN(c3ccc(C(=O)NS(=O)(=O)c4ccc(N[C@H](CCN5CCOCC5)CSc5ccccc5)c(S(=O)(=O)C(F)(F)F)c4)cc3)CC2)C1 [Navitoclax] (partner 0.5 µM)"
  test-target: "NCI-H727"
  assigned-category: "label 1"
- compound: "O=c1cc(N2CCOCC2)oc2c(-c3cccc4c3sc3ccccc34)cccc12 + Cc1nc(Nc2ncc(C(=O)Nc3c(C)cccc3Cl)s2)cc(N2CCN(CCO)CC2)n1 [Dasatinib] (partner 0.075 µM)"
  test-target: "NCI-H727"
  assigned-category: "label 1"

These measurements were taken from the supplement of paper PMC10307832.
